- Test system: ANGIOTENSIN II VASOPRESSOR RESPONSE
- protocol-description: AII Challenge: blockade of angiotensin II vasopressor response in conscious SHR
- Assay type: in vivo, rat (Conscious Male Okamoto-Aoki SHR)
- applied-conditions: SHR n=2; 3 mg/kg i.v.; AII 0.05 mcg/kg IV; 300 min post dose
Mark 1 only for % Inhibition of AII vasopressor response values smaller than 50%; exact matches and larger values are 0.

Record excerpt, results attached:
compound	system	class
CCCCc1nc2ccc(C(C)(O)C3CCN(C)C3=O)cc2c(=O)n1Cc1ccc(-c2ccccc2-c2nn[nH]n2)cc1 (single isomer, unassigned; isomer 2) [Example 48]	ANGIOTENSIN II VASOPRESSOR RESPONSE	0
CCCCc1nc2ccc(C(O)C3CCN(C)C3=O)cc2c(=O)n1Cc1ccc(-c2ccccc2-c2nn[nH]n2)cc1 (single isomer, unassigned; isomer 2) [Example 33]	ANGIOTENSIN II VASOPRESSOR RESPONSE	1
CCCCc1nc2ccc(C(O)C3CCCS3(=O)=O)cc2c(=O)n1Cc1ccc(-c2ccccc2-c2nn[nH]n2)cc1 (single isomer, unassigned; isomer 2) [Example 16]	ANGIOTENSIN II VASOPRESSOR RESPONSE	1
CCCCc1nc2ccc(C(O)C3CCCN(C)C3=O)cc2c(=O)n1Cc1ccc(-c2ccccc2-c2nn[nH]n2)cc1 (single isomer, unassigned; isomer 1)	ANGIOTENSIN II VASOPRESSOR RESPONSE	1

Does the reported % Inhibition of AII vasopressor response of the following compound sit strictly below 50%? CCCCc1nc2ccc(C(O)C3CCN(C)C3=O)cc2c(=O)n1Cc1ccc(-c2ccccc2-c2nn[nH]n2)cc1 (single isomer, unassigned; isomer 1) [Example 32]
1

Now this one: CCCCc1nc2ccc(C(OC)C3CCCO3)cc2c(=O)n1Cc1ccc(-c2ccccc2-c2nn[nH]n2)cc1 (single isomer, unassigned) [Example 24]
0

* * *

- Test system: ANGIOTENSIN II VASOPRESSOR RESPONSE
- protocol-description: AII Challenge: blockade of angiotensin II vasopressor response in conscious SHR
- Format: in vivo, rat (Conscious Male Okamoto-Aoki SHR)
- applied-conditions: SHR n=2; 3 mg/kg i.v.; AII 0.05 mcg/kg IV; 300 min post dose
measured-endpoint: % Inhibition of AII vasopressor response (%)
Answer with a number only, understood to be in %.

Example compounds with recorded % Inhibition of AII vasopressor response:
compound	measured-endpoint	measured
CCCCc1nc2ccc(C(O)C3CCCS3(=O)=O)cc2c(=O)n1Cc1ccc(-c2ccccc2-c2nn[nH]n2)cc1 (single isomer, unassigned; isomer 1) [Example 15]	% Inhibition of AII vasopressor response	26
CCCCc1nc2ccc(C(C)(O)C3CCCN(C)C3=O)cc2c(=O)n1Cc1ccc(-c2ccccc2-c2nn[nH]n2)cc1 (single isomer, unassigned; isomer 2)	% Inhibition of AII vasopressor response	53

--- query ---
Sample CCCCc1nc2ccc(C(C)(O)C3CCN(C)C3=O)cc2c(=O)n1Cc1ccc(-c2ccccc2-c2nn[nH]n2)cc1 (single isomer, unassigned; isomer 1) [Example 47] — what was its % Inhibition of AII vasopressor response?
29

* * *

Listed molecules paired with reported Average Change (systolic blood pressure response to AII)
- System: ANGIOTENSIN II VASOPRESSOR RESPONSE
- protocol-description: AII Challenge: blockade of angiotensin II vasopressor response in conscious SHR
- Type: in vivo, rat (Conscious Male Okamoto-Aoki SHR)
- applied-conditions: SHR n=2; 3 mg/kg i.v.; AII 0.05 mcg/kg IV; 180 min post dose
Answer with a number only, understood to be in mmHg.

Example molecules with recorded Average Change (systolic blood pressure response to AII):
molecule	system	measured
CCCCc1nc2ccc(C(C)(O)C3CCCN(C)C3=O)cc2c(=O)n1Cc1ccc(-c2ccccc2-c2nn[nH]n2)cc1 (single isomer, unassigned; isomer 2)	ANGIOTENSIN II VASOPRESSOR RESPONSE	30
CCCCc1nc2ccc(C(C)(O)C3CCN(C)C3=O)cc2c(=O)n1Cc1ccc(-c2ccccc2-c2nn[nH]n2)cc1 (single isomer, unassigned; isomer 2) [Example 48]	ANGIOTENSIN II VASOPRESSOR RESPONSE	13.5
CCCCc1nc2ccc(C(OC)C3CCCO3)cc2c(=O)n1Cc1ccc(-c2ccccc2-c2nn[nH]n2)cc1 (single isomer, unassigned; isomer 1) [Example 23]	ANGIOTENSIN II VASOPRESSOR RESPONSE	7.5
CCCCc1nc2ccc(C(O)C3CCCN(C)C3=O)cc2c(=O)n1Cc1ccc(-c2ccccc2-c2nn[nH]n2)cc1 (single isomer, unassigned; isomer 1)	ANGIOTENSIN II VASOPRESSOR RESPONSE	12.5
CCCCc1nc2ccc(C(OC)C3CCCO3)cc2c(=O)n1Cc1ccc(-c2ccccc2-c2nn[nH]n2)cc1 (single isomer, unassigned) [Example 24]	ANGIOTENSIN II VASOPRESSOR RESPONSE	7.5
CCCCc1nc2ccc(C(O)C3CCCS3(=O)=O)cc2c(=O)n1Cc1ccc(-c2ccccc2-c2nn[nH]n2)cc1 (single isomer, unassigned; isomer 1) [Example 15]	ANGIOTENSIN II VASOPRESSOR RESPONSE	23.5

--- query ---
Sample CCCCc1nc2ccc(C(O)C3CCCS3(=O)=O)cc2c(=O)n1Cc1ccc(-c2ccccc2-c2nn[nH]n2)cc1 (single isomer, unassigned; isomer 2) [Example 16] — what was its Average Change (systolic blood pressure response to AII)?
27.5

* * *

Listed molecules paired with reported % Inhibition of AII vasopressor response
- Test system: ANGIOTENSIN II VASOPRESSOR RESPONSE
- protocol-description: AII Challenge: blockade of angiotensin II vasopressor response in conscious SHR
- Type: in vivo, rat (Conscious Male Okamoto-Aoki SHR)
- applied-conditions: SHR n=2; 3 mg/kg i.v.; AII 0.05 mcg/kg IV; 90 min post dose
- Method: By administering a compound of this invention to a rat, and then challenging with angiotensin II, a blockage of the vasopressor response is realized. Conscious Male Okamoto-Aoki SHR, 16-20 weeks old, weighing approximately 330 g are purchased from Charles River Labs (Wilmington, Mass.). […] The cannula is attached to a Statham P23Db pressure transducer, and pulsatile blood pressure is recorded to 10-15 minutes with a Gould Brush recorder. […]
Answer with a number only, understood to be in %.

Example molecules with recorded % Inhibition of AII vasopressor response:
molecule	endpoint-unit	% Inhibition of AII vasopressor response
CCCCc1nc2ccc(C(C)(O)C3CCCN(C)C3=O)cc2c(=O)n1Cc1ccc(-c2ccccc2-c2nn[nH]n2)cc1 (single isomer, unassigned; isomer 2) [Example 53]	%	58
CCCCc1nc2ccc(C(O)C3CCN(C)C3=O)cc2c(=O)n1Cc1ccc(-c2ccccc2-c2nn[nH]n2)cc1 (single isomer, unassigned; isomer 1) [Example 32]	%	89
CCCCc1nc2ccc(C(OC)C3CCCO3)cc2c(=O)n1Cc1ccc(-c2ccccc2-c2nn[nH]n2)cc1 (single isomer, unassigned; isomer 1) [Example 23]	%	79
CCCCc1nc2ccc(C(O)C3CCCS3(=O)=O)cc2c(=O)n1Cc1ccc(-c2ccccc2-c2nn[nH]n2)cc1 (single isomer, unassigned; isomer 1) [Example 15]	%	83

--- query ---
Sample CCCCc1nc2ccc(C(C)(O)C3CCN(C)C3=O)cc2c(=O)n1Cc1ccc(-c2ccccc2-c2nn[nH]n2)cc1 (single isomer, unassigned; isomer 2) [Example 48] — what was its % Inhibition of AII vasopressor response?
83

* * *

- Tested on: ANGIOTENSIN II VASOPRESSOR RESPONSE
- protocol-description: AII Challenge: blockade of angiotensin II vasopressor response in conscious SHR
- Format: in vivo, rat (Conscious Male Okamoto-Aoki SHR)
- applied-conditions: SHR n=2; 3 mg/kg p.o.; AII 0.1 mcg/kg IV; 240 min post dose
measured-endpoint: Average Change (systolic blood pressure response to AII) (mmHg)
Answer with a number only, understood to be in mmHg.

Example molecules with recorded Average Change (systolic blood pressure response to AII):
molecule	measured
CCCCc1nc2ccc(C(O)C3CCN(C)C3=O)cc2c(=O)n1Cc1ccc(-c2ccccc2-c2nn[nH]n2)cc1 (single isomer, unassigned; isomer 1) [Example 32]	29
CCCCc1nc2ccc(C(O)C3CCCN(C)C3=O)cc2c(=O)n1Cc1ccc(-c2ccccc2-c2nn[nH]n2)cc1 (single isomer, unassigned; isomer 2) [Example 38]	29
CCCCc1nc2ccc(C(OC)C3CCCN(C)C3=O)cc2c(=O)n1Cc1ccc(-c2ccccc2-c2nn[nH]n2)cc1 (single isomer, unassigned; isomer 2) [Example 43]	35

Sample CCCCc1nc2ccc(C(OC)C3CCCO3)cc2c(=O)n1Cc1ccc(-c2ccccc2-c2nn[nH]n2)cc1 (single isomer, unassigned) [Example 24] — what was its Average Change (systolic blood pressure response to AII)?
40

Now this one: CCCCc1nc2ccc(C(O)C3CCN(C)C3=O)cc2c(=O)n1Cc1ccc(-c2ccccc2-c2nn[nH]n2)cc1 (single isomer, unassigned; isomer 2) [Example 33]
47.5

Data origin: patent US5288720A
